test: Chemical stability of the compound in pH 4 acetate buffer assessed as compound remaining at 60 degC after 1 week by HPLC analysis; format: physicochemical; details: read-out: Stability
Parameter: remaining at 168 h

INSERT INTO results (compound, parameter, assay_result) VALUES
  ('Cc1cc(C)nc(N2C[C@H]3CN(C(=O)c4c(F)cccc4-n4nccn4)C[C@H]3C2)n1 [SELTOREXANT]', 'remaining at 168 h', '99.4%');

* * *

test: Plasma protein binding in rat at 1 uM after 6 hrs by equilibrium dialysis method; type: ADME, cell-free; settings: read-out: PPB (converted)
As shown below, each of these molecules has a reported fraction unbound at 6 h, 1 µM value.
Parameter: fraction unbound at 6 h, 1 µM

INSERT INTO results (structure_as_smiles, assay_result) VALUES
  ('Cc1cc(C)nc(N2C[C@H]3CN(C(=O)c4cccc(F)c4-n4nccn4)C[C@H]3C2)n1', 0.273),
  ('Cc1cc(C)nc(N2C[C@H]3CN(C(=O)c4ccc(F)cc4-n4nccn4)C[C@H]3C2)n1', 0.116);

* * *

assay: Protein binding in rat brain at 5 uM after 5 hrs by equilibrium dialysis method; type: ADME, tissue-based; details: read-out: PB (converted)
As shown below, each of these molecules has a reported fraction unbound at 5 h, 5 µM value.
Parameter: fraction unbound at 5 h, 5 µM

INSERT INTO measurements (structure_as_smiles, parameter, assay_result) VALUES
  ('Cc1cc(C)nc(N2C[C@H]3CN(C(=O)c4cccc(F)c4-n4nccn4)C[C@H]3C2)n1', 'fraction unbound at 5 h, 5 µM', 0.156),
  ('Cc1cc(C)nc(N2C[C@H]3CN(C(=O)c4c(F)cccc4-n4nccn4)C[C@H]3C2)n1', 'fraction unbound at 5 h, 5 µM', 0.119);

* * *

test: Apparent permeability from apical to basolateral side in human Caco2/TC7 cells at 10 uM; settings: Caco-2
Parameter: Papp A→B at 10 µM (×10⁻⁶ cm/s)

INSERT INTO assay_data (structure_as_smiles, assay_result) VALUES
  ('Cc1cc(C)nc(N2C[C@H]3CN(C(=O)c4ccc(F)cc4-n4nccn4)C[C@H]3C2)n1', 58.1),
  ('Cc1cc(C)nc(N2C[C@H]3CN(C(=O)c4cccc(F)c4-n4nccn4)C[C@H]3C2)n1', 62.3);

* * *

As shown below, each of these molecules has a reported pKi value.
Target: Orexin receptor type 2 (Homo sapiens)
Sequence (O43614 whole entry): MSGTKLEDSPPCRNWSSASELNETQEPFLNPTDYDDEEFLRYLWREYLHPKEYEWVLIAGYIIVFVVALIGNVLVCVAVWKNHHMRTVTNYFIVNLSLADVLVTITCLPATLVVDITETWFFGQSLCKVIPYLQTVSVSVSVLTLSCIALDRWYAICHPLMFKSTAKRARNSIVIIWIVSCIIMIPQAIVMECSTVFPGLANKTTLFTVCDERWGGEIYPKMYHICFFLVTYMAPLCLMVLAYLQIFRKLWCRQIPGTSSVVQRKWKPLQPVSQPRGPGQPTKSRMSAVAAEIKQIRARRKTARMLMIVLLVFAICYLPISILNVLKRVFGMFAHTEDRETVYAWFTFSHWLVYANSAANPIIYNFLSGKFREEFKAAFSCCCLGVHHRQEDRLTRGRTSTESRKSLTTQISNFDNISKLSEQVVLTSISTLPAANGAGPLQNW
Assay: Binding affinity to human OX2 receptor
pKi: −log10 of the molar value.
Parameter: pKi

INSERT INTO results (structure_as_smiles, assay_result) VALUES
  ('O=C(c1ccccc1-c1ccccc1)N1C[C@@H]2CN(c3cnc4ccccc4n3)C[C@@H]2C1', 6.62),
  ('Cc1ccnc(N2C[C@H]3CN(C(=O)c4ccccc4-c4ccccc4)C[C@H]3C2)n1', 6.05),
  ('COc1cc(OC)nc(N2C[C@H]3CN(C(=O)c4ccccc4-c4cccs4)C[C@H]3C2)n1', 7.39),
  ('COc1ccc(C(=O)N2C[C@@H]3CN(c4nc5ccc(F)cc5s4)C[C@@H]3C2)c(OC)c1', 6.13),
  ('Cc1cc(C)nc(N2C[C@H]3CN(C(=O)c4ccccc4-c4cccc(F)c4)C[C@H]3C2)n1', 6.74),
  ('O=C(c1ccccc1-c1ccccc1)N1C[C@@H]2CN(c3nccc(-c4ccccc4)n3)C[C@@H]2C1', 6.38),
  ('O=C(c1ccccc1-c1cccs1)N1C[C@@H]2CN(c3nc4ccc(F)cc4s3)C[C@@H]2C1', 6.86),
  ('COc1cccc(OC)c1C(=O)N1C[C@@H]2CN(c3nc4ccc(Cl)cc4s3)C[C@@H]2C1', 5.66),
  ('Cc1cc(C)nc(N2C[C@H]3CN(C(=O)c4ccccc4-c4cccs4)C[C@H]3C2)n1', 8.01),
  ('COc1ccnc(N2C[C@H]3CN(C(=O)c4c(C)ccc5ccccc45)C[C@H]3C2)n1', 6.85),
  ('Cc1cc(C)nc(N2C[C@H]3CN(C(=O)c4c(C)ccc5ccccc45)C[C@H]3C2)n1', 7.29),
  ('O=C(c1ccccc1-c1ccccc1)N1C[C@@H]2CN(c3nc4ccccc4s3)C[C@@H]2C1', 6.16),
  ('O=C(c1ccccc1-c1cccs1)N1C[C@@H]2CN(c3cnc4ccccc4n3)C[C@@H]2C1', 6.97),
  ('COc1ccc(C(=O)N2C[C@@H]3CN(c4nc5ccc(Cl)cc5s4)C[C@@H]3C2)c(OC)c1', 6.29),
  ('Cc1cc(C)nc(N2C[C@H]3CN(C(=O)c4ccccc4-c4ncn[nH]4)C[C@H]3C2)n1', 7.52),
  ('O=C(c1ccccc1-n1cccn1)N1C[C@@H]2CN(c3cnc4ccccc4n3)C[C@@H]2C1', 6.11),
  ('COc1ccc(C(=O)N2C[C@@H]3CN(c4nc5ccc(OC)cc5s4)C[C@@H]3C2)c(OC)c1', 6.06),
  ('COc1ccc(C(=O)N2C[C@@H]3CN(c4nc5ccc(C)cc5s4)C[C@@H]3C2)c(OC)c1', 6.17),
  ('O=C(c1ccccc1-c1ccccc1)N1C[C@@H]2CN(c3nc4ccc(F)cc4s3)C[C@@H]2C1', 6.53),
  ('CCOc1ccc2ccccc2c1C(=O)N1C[C@@H]2CN(c3nc(C)cc(C)n3)C[C@@H]2C1', 7.57);
